measurement.kind: melting point (°C)

Cl.O=C(NC1=Nc2c(cccc2C(F)(F)F)C2=NCCN12)c1ccc2[nH]cnc2c1 ... 270
COc1ccc2c(c1OCCN1CCOCC1)N=C(/C=C(\O)c1cccnc1)N1CCN=C21.Cl ... 215

====

system: Recombinant human PI3Kγ (full length human PI3K p110γ) (Homo sapiens, UniProt P48736)
Construct: full length human PI3K p110γ fused with a His6-tag at the C-terminus; His6 (C); purchased ALEXIS BIOCHEMICALS #201-055-C010; host or cells: S. frugiperda 9 insect cells
Sequence (P48736 whole entry, the tested form may be a part): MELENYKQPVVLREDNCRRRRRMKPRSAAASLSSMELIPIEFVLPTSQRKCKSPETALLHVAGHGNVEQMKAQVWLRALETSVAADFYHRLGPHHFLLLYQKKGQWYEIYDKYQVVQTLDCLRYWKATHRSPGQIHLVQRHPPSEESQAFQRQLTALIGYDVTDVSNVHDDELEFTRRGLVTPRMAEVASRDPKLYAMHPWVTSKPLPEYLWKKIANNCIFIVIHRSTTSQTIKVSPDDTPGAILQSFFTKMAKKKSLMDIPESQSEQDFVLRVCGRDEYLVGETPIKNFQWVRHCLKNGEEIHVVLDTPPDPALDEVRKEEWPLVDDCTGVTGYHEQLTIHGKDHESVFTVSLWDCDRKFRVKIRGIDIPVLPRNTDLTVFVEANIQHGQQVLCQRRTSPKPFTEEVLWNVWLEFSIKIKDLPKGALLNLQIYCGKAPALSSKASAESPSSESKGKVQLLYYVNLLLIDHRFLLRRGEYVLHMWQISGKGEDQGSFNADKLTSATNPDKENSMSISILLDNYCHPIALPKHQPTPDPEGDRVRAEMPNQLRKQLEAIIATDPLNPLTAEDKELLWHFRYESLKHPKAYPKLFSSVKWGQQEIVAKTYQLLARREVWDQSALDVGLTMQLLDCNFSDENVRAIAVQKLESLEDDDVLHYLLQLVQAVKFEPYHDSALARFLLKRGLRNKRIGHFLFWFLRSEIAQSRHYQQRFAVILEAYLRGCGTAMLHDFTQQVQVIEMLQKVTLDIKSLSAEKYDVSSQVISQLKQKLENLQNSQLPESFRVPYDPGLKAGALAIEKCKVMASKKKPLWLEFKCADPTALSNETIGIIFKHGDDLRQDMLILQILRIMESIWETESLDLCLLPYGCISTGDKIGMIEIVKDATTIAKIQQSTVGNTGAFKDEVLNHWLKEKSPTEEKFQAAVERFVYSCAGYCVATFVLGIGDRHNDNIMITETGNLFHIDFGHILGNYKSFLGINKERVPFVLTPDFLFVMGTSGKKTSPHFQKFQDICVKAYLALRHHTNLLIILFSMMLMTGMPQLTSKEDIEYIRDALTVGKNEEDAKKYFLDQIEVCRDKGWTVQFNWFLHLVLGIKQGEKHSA
assay.name: Kinase assay of PI3Kγ (solid-phase lipid kinase assay)
Type: biochemical
condition.parameters: Table 1, isozyme not given; read-out: in vitro
Measured IC50 of individual entries

N#Cc1ccc(/C(O)=C/C2=Nc3ccccc3C3=NCCN23)cc1 ... > 2000 nM
CN1CCN(c2ccc3c(c2)N=C(/C=C(\O)c2cccnc2)N2CCN=C32)CC1.Cl ... 100 to 500 nM
O/C(=C\C1=Nc2ccccc2C2=NCCN12)c1ccc[nH]1 ... 100 to 500 nM

Proceeding to the next compound to report its IC50.
INPUT: What value of measured IC50 is listed for O/C(=C\C1=Nc2cc(Cl)ccc2C2=NCCN12)c1ccccc1 ?
OUTPUT: 500 to 2000 nM

====

measurement.kind: melting point (°C)

COc1ccc2c(c1Br)N=C(NC(=O)c1cccnc1)N1CCN=C21.Cl ... 298
COc1cc2c(cc1OC)C1=NCCN1C(NC(=O)c1cccs1)=N2 ... 248

====

Reported melting point by item:

INPUT: Return reported melting point; argument: CC(C)(C)OC(=O)Nc1cccc(C(=O)NC2=Nc3ccccc3C3=NCCN23)c1
OUTPUT: 280 °C (dec.)

INPUT: Item Cc1ccc(C(=O)NC2=Nc3ccccc3C3=NCCN23)cn1 has what recorded melting point?
OUTPUT: 195 to 196 °C

INPUT: Fill in: melting point of COc1cccc2c1N=C(NC(=O)c1cccnc1)N1CCN=C21.Cl is ___
OUTPUT: 237 °C (dec.)

====

Item-by-item account of melting point

INPUT: # lookup: melting point of COc1cc2c(cc1OC)C1=NCCN1C(/C=C(\O)c1ccc(C)nc1)=N2.Cl
OUTPUT: 260 °C (dec.)

====

Reported melting point values for the following compounds.

Worked examples follow.
COc1cccc2c1N=C(NC(=O)c1ccc3[nH]cnc3c1)N1CCN=C21.Cl [Example 2-125] ... 238 °C
O=C(NC1=Nc2ccccc2C2=NCCN12)c1ccc(Cl)s1 [Example 2-301] ... 198 °C (dec.)
O=C(NC1=Nc2ccccc2C2=NCCN12)c1ccccc1 [Example 2-214] ... 201 to 203 °C (dec.)

Now look at this one.
INPUT: What melting point value was documented for this compound, NS(=O)(=O)c1ccc(C(=O)NC2=Nc3ccccc3C3=NCCN23)c(Cl)c1 [Example 2-249] ?
OUTPUT: 240 °C (dec.)

====

Known pIC50 of a selection of compounds
system: Recombinant human PI3Kγ (full length human PI3K p110γ) (Homo sapiens, UniProt P48736)
Construct: full length human PI3K p110γ fused with a His6-tag at the C-terminus; His6 (C); purchased ALEXIS BIOCHEMICALS #201-055-C010; host or cells: S. frugiperda 9 insect cells
assay.name: Kinase assay of PI3Kγ (solid-phase lipid kinase assay)
Format: biochemical
condition.parameters: in vitro PI3K-γ inhibitory activity, class symbols A-D; read-out: in vitro PI3K-gamma
pIC50: −log10 of the molar value.

Observe how each entry below is paired with its result.
Nc1ccccc1C(=O)NC1=Nc2ccccc2C2=NCCN12.O=C(O)C(F)(F)F ... < 5.70
CC(C)(C)OC(=O)N1CCCC(C(=O)NC2=Nc3ccccc3C3=NCCN23)C1 (stereo not drawn) ... < 5.70
CN(C)c1cccc(C(=O)NC2=Nc3ccccc3C3=NCCN23)c1 ... < 5.70
N#Cc1ccc(C(=O)NC2=Nc3ccccc3C3=NCCN23)cc1.O=C(O)C(F)(F)F ... < 5.70
O=C(NC1=Nc2ccccc2C2=NCCN12)c1ccccc1.O=C(O)C(F)(F)F ... 6.30 to 7.00
O=C(NC1=Nc2cccc(Cl)c2C2=NCCN12)c1cccs1 ... < 5.70
Cl.O=C(NC1=Nc2ccc(Br)cc2C2=NCCN12)c1cccs1 ... 5.70 to 6.30
O=C(NC1=Nc2ccccc2C2=NCCN12)c1csc(-c2ccncc2)n1 ... < 5.70
CC(=O)Nc1cccc(C(=O)NC2=Nc3ccccc3C3=NCCN23)c1.O=C(O)C(F)(F)F ... < 5.70
Cl.O=C(NC1=Nc2cccc(Cl)c2C2=NCCN12)c1cccs1 ... 5.70 to 6.30

INPUT: Given the entry O=C(NC1=Nc2ccccc2C2=NCCN12)C1CCN(C(=O)OCc2ccccc2)CC1 , report its measured pIC50.
OUTPUT: < 5.70

INPUT: # lookup: pIC50 of COc1cccc(C(=O)NC2=Nc3ccccc3C3=NCCN23)c1.O=C(O)C(F)(F)F
OUTPUT: 5.70 to 6.30

INPUT: # input compound: O=C(NC1=Nc2ccccc2C2=NCCN12)C(F)(F)C(F)(F)F ; wanted: its pIC50
OUTPUT: < 5.70

INPUT: Which pIC50 reading was recorded for the compound CN(C)c1ccc(C(=O)NC2=Nc3ccccc3C3=NCCN23)cc1.O=C(O)C(F)(F)F ?
OUTPUT: < 5.70

INPUT: Request the reported pIC50 associated with CN(C)c1ccc2c(c1)C1=NCCN1C(NC(=O)c1cccnc1)=N2
OUTPUT: 5.70 to 6.30

INPUT: Which pIC50 is listed for CS(=O)(=O)c1ccc(C(=O)NC2=Nc3ccccc3C3=NCCN23)cc1 ?
OUTPUT: < 5.70

INPUT: Please report the recorded pIC50 for O=C(NC1=Nc2ccccc2C2=NCCN12)C1CCCCC1 .
OUTPUT: < 5.70
